- Test system: gram negative bacteria
- run_description: In vitro anti-bacterial activity assay (broth dilution MIC), gram negative bacteria
- Format: cell-based, E. coli
- condition_details: Escherichia coli, ATCC25922, 18 h, E. coli ATCC 25922; read-out: Median MIC's G− E. coli ATCC 25922
- Protocol: Bacterial infections may be caused by a wide variety of gram positive and gram negative bacteria. Some of the compounds of the invention are useful as antibiotics against organisms which are resistant and/or sensitive to other tetracycline compounds. […] 50 μl of the cell suspensions were added to each well of microtiter plates. […] The plates were read with a microplate reader and were visually inspected when necessary. […]

{"compound_smiles": "CN(C)[C@@H]1C(O)=C(C(N)=O)C(=O)[C@@]2(O)C(O)=C3C(=O)c4c(O)ccc(-c5coc(CN6CCCCC6)c5)c4C[C@H]3C[C@@H]12", "unit_symbol": "µg/mL", "MIC": 0.25}
{"compound_smiles": "CN(C)[C@@H]1C(O)=C(C(N)=O)C(=O)[C@@]2(O)C(O)=C3C(=O)c4c(O)ccc(-c5cccc(C(=O)NCCN)c5)c4C[C@H]3C[C@@H]12", "unit_symbol": "µg/mL", "MIC": 64}
{"compound_smiles": "CN(C)CCNC(=O)c1ccc(-c2ccc(O)c3c2C[C@H]2C[C@H]4[C@H](N(C)C)C(O)=C(C(N)=O)C(=O)[C@@]4(O)C(O)=C2C3=O)cc1", "unit_symbol": "µg/mL", "MIC": 16}
{"compound_smiles": "CN(C)CCCNC(=O)c1ccc(-c2ccc(O)c3c2C[C@H]2C[C@H]4[C@H](N(C)C)C(O)=C(C(N)=O)C(=O)[C@@]4(O)C(O)=C2C3=O)o1", "unit_symbol": "µg/mL", "MIC": 64}
{"compound_smiles": "CC(=O)Nc1cccc(-c2ccc(O)c3c2C[C@H]2C[C@H]4[C@H](N(C)C)C(O)=C(C(N)=O)C(=O)[C@@]4(O)C(O)=C2C3=O)c1", "unit_symbol": "µg/mL", "MIC": 4}
{"compound_smiles": "CN(C)Cc1ccc(-c2ccc(O)c3c2C[C@H]2C[C@H]4[C@H](N(C)C)C(O)=C(C(N)=O)C(=O)[C@@]4(O)C(O)=C2C3=O)[nH]1", "unit_symbol": "µg/mL", "MIC": 4}
